Source of measurements: BigSolDB 2.1

MEASUREMENT CONDITIONS: in acetonitrile, 318.15 K
REPORTED PROPERTY: solubility (mole fraction)
Numbers only.

Record COc1cccc(C(=O)O)c1OC , field solubility (mole fraction): 0.059

###

MEASUREMENT CONDITIONS: in isopropyl acetate, 278.15 K
REPORTED PROPERTY: solubility (mole fraction)

Lab note: COc1cccc(C(=O)O)c1OC gave solubility (mole fraction) of 0.00953

###

MEASUREMENT CONDITIONS: in n-butanol, 318.15 K
REPORTED PROPERTY: solubility (mole fraction)
Give bare numbers.

For COc1cccc(C(=O)O)c1OC the molecule record lists solubility (mole fraction) as 0.0562

###

MEASUREMENT CONDITIONS: in ethyl acetate, 318.15 K
REPORTED PROPERTY: solubility (mole fraction)
Give bare numbers.

Consider COc1cccc(C(=O)O)c1OC . Its measured solubility (mole fraction) is 0.057

###

MEASUREMENT CONDITIONS: in n-butyl acetate, 303.15 K
REPORTED PROPERTY: solubility (mole fraction)

In plain terms, COc1cccc(C(=O)O)c1OC has a documented solubility (mole fraction) of 0.0234

###

MEASUREMENT CONDITIONS: in n-butanol, 313.15 K
REPORTED PROPERTY: solubility (mole fraction)
Give bare numbers.

Kindly note the recorded solubility (mole fraction) for COc1cccc(C(=O)O)c1OC , which is 0.0449

###

MEASUREMENT CONDITIONS: in 2-ethoxyethanol, 308.15 K
REPORTED PROPERTY: solubility (mole fraction)
One number for each entry.

Briefly, solubility (mole fraction) measured for COc1cccc(C(=O)O)c1OC : 0.0974

###

MEASUREMENT CONDITIONS: in ethyl acetate, 308.15 K
REPORTED PROPERTY: solubility (mole fraction)
Give bare numbers.

solubility (mole fraction) measured on COc1cccc(C(=O)O)c1OC = 0.0391

###

MEASUREMENT CONDITIONS: in 1,4-dioxane, 303.15 K
REPORTED PROPERTY: solubility (mole fraction)

compound COc1cccc(C(=O)O)c1OC , solubility (mole fraction) observed: 0.0934

###

MEASUREMENT CONDITIONS: in isopropanol, 308.15 K
REPORTED PROPERTY: solubility (mole fraction)
Answers are plain numbers.

Kindly note the recorded solubility (mole fraction) for COc1cccc(C(=O)O)c1OC , which is 0.0384

###

MEASUREMENT CONDITIONS: in ethyl acetate, 293.15 K
REPORTED PROPERTY: solubility (mole fraction)
Give bare numbers.

// solubility (mole fraction) value for COc1cccc(C(=O)O)c1OC : 0.023

###

MEASUREMENT CONDITIONS: in n-propanol, 288.15 K
REPORTED PROPERTY: solubility (mole fraction)
Give bare numbers.

Lab book: solubility (mole fraction) of COc1cccc(C(=O)O)c1OC noted as 0.0151

###

MEASUREMENT CONDITIONS: in ethyl acetate, 303.15 K
REPORTED PROPERTY: solubility (mole fraction)
One number for each entry.

So, COc1cccc(C(=O)O)c1OC ? Its solubility (mole fraction) was 0.0332

###

MEASUREMENT CONDITIONS: in 2-ethoxyethanol, 278.15 K
REPORTED PROPERTY: solubility (mole fraction)
Numbers only.

What the record says about COc1cccc(C(=O)O)c1OC : solubility (mole fraction) is 0.0418

###

MEASUREMENT CONDITIONS: in n-propyl acetate, 308.15 K
REPORTED PROPERTY: solubility (mole fraction)
Numbers only.

Note to self: solubility (mole fraction) recorded for COc1cccc(C(=O)O)c1OC was 0.0326

###

MEASUREMENT CONDITIONS: in acetonitrile, 293.15 K
REPORTED PROPERTY: solubility (mole fraction)
One number for each entry.

COc1cccc(C(=O)O)c1OC yielded solubility (mole fraction) of 0.0204

###

MEASUREMENT CONDITIONS: in n-butanol, 293.15 K
REPORTED PROPERTY: solubility (mole fraction)

GET /value?item= COc1cccc(C(=O)O)c1OC &field=solubility (mole fraction) returns 0.0183

###

MEASUREMENT CONDITIONS: in n-propanol, 313.15 K
REPORTED PROPERTY: solubility (mole fraction)
Give bare numbers.

Lab note: measured solubility (mole fraction) of COc1cccc(C(=O)O)c1OC was 0.05

###

MEASUREMENT CONDITIONS: in n-butanol, 288.15 K
REPORTED PROPERTY: solubility (mole fraction)
One number for each entry.

# solubility (mole fraction) (compound: COc1cccc(C(=O)O)c1OC ) is 0.0144

###

MEASUREMENT CONDITIONS: in methyl acetate, 313.15 K
REPORTED PROPERTY: solubility (mole fraction)
One number for each entry.

The reported value for COc1cccc(C(=O)O)c1OC in terms of solubility (mole fraction) is 0.0589

###

MEASUREMENT CONDITIONS: in methyl acetate, 308.15 K
REPORTED PROPERTY: solubility (mole fraction)
Give bare numbers.

Recorded solubility (mole fraction) (compound COc1cccc(C(=O)O)c1OC ): 0.0494

###

MEASUREMENT CONDITIONS: in methanol, 308.15 K
REPORTED PROPERTY: solubility (mole fraction)
Answers are plain numbers.

// recorded solubility (mole fraction) for COc1cccc(C(=O)O)c1OC : 0.0535

###

MEASUREMENT CONDITIONS: in ethanol, 323.15 K
REPORTED PROPERTY: solubility (mole fraction)
One number for each entry.

Looking up COc1cccc(C(=O)O)c1OC , I found its solubility (mole fraction) recorded as 0.0884

###

MEASUREMENT CONDITIONS: in methanol, 283.15 K
REPORTED PROPERTY: solubility (mole fraction)

Notebook: COc1cccc(C(=O)O)c1OC , solubility (mole fraction) read as 0.0192

###

MEASUREMENT CONDITIONS: in n-propyl acetate, 318.15 K
REPORTED PROPERTY: solubility (mole fraction)
One number for each entry.

Briefly, solubility (mole fraction) measured for COc1cccc(C(=O)O)c1OC : 0.0468

###

MEASUREMENT CONDITIONS: in ethylene glycol, 293.15 K
REPORTED PROPERTY: solubility (mole fraction)
Give bare numbers.

COc1cccc(C(=O)O)c1OC yielded solubility (mole fraction) of 0.0708

###

MEASUREMENT CONDITIONS: in 1,4-dioxane, 318.15 K
REPORTED PROPERTY: solubility (mole fraction)
Give bare numbers.

Consider COc1cccc(C(=O)O)c1OC . Its measured solubility (mole fraction) is 0.148

###

MEASUREMENT CONDITIONS: in acetonitrile, 313.15 K
REPORTED PROPERTY: solubility (mole fraction)
Answers are plain numbers.

For reference, reported solubility (mole fraction) for COc1cccc(C(=O)O)c1OC stands at 0.0474

###

MEASUREMENT CONDITIONS: in ethyl acetate, 323.15 K
REPORTED PROPERTY: solubility (mole fraction)
Answers are plain numbers.

Note to self: solubility (mole fraction) recorded for COc1cccc(C(=O)O)c1OC was 0.0685

###

MEASUREMENT CONDITIONS: in ethyl acetate, 283.15 K
REPORTED PROPERTY: solubility (mole fraction)

The recorded solubility (mole fraction) for COc1cccc(C(=O)O)c1OC is 0.0159

###

MEASUREMENT CONDITIONS: in isopropanol, 288.15 K
REPORTED PROPERTY: solubility (mole fraction)
Numbers only.

# molecule COc1cccc(C(=O)O)c1OC ; its solubility (mole fraction) = 0.0138

###

MEASUREMENT CONDITIONS: in ethylene glycol, 323.15 K
REPORTED PROPERTY: solubility (mole fraction)
One number for each entry.

The molecule listed as COc1cccc(C(=O)O)c1OC shows solubility (mole fraction) equal to 0.154

###

MEASUREMENT CONDITIONS: in isopropyl acetate, 298.15 K
REPORTED PROPERTY: solubility (mole fraction)
Give bare numbers.

Field solubility (mole fraction) (entry COc1cccc(C(=O)O)c1OC ) reads 0.0198

###

MEASUREMENT CONDITIONS: in n-propyl acetate, 303.15 K
REPORTED PROPERTY: solubility (mole fraction)
Give bare numbers.

For reference, reported solubility (mole fraction) for COc1cccc(C(=O)O)c1OC stands at 0.0279

###

MEASUREMENT CONDITIONS: in n-propanol, 283.15 K
REPORTED PROPERTY: solubility (mole fraction)

Lab book: solubility (mole fraction) of COc1cccc(C(=O)O)c1OC noted as 0.0122

###

MEASUREMENT CONDITIONS: in ethylene glycol, 298.15 K
REPORTED PROPERTY: solubility (mole fraction)

The compound listed as COc1cccc(C(=O)O)c1OC shows solubility (mole fraction) equal to 0.0801
